Would you kindly list %Inh for each of these compounds?
Tested on: GSK3A;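 also: KINOMEscan kinase panel screen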
Conditions: concentration: 1 μM, replicates: in singlicate; n = 1
One number for each entry, in %.

A selection of reference data follows.
INSERT INTO assay_data (compound, systemtested, readoutvalue) VALUES
  ('COC(=O)C(NC(=O)NC1CCN(c2ccnc(Nc3ccc(F)cc3)n2)C1)c1ccccc1 (stereo not drawn)', 'GSK3A', 16),
  ('CS(=O)(=O)CCNCc1nc(-c2ccc3ncnc(Nc4ccc5c(cnn5Cc5ccccc5)c4)c3c2)cs1.Cl.Cl', 'GSK3A', 0);

Next, consider the following compound.
Query: %Inh; subject: COc1ccc(-c2coc3ccc(-c4nnc(C)o4)cc23)cc1 11
